biological target: UniProt:Q99572; assay: Antagonist activity at P2X7R expressed in LPS-stimulated human whole blood assessed as inhibition of ATP-induced IL1-beta release; format: functional, tissue-based
pIC50: −log10 of the molar value.
quantity-kind: pIC50

// solved cases for pIC50 follow
# smiles-code, pIC50
rows = [
    ("Cn1ccc(-c2ccc(Cl)c(C(=O)NCC3(O)CCCCCC3)c2)n1", 6.36),
    ("COc1ccc(-c2ccc(Cl)c(C(=O)NCC3(O)CCCCCC3)c2)nn1", 6.29),
]

I = O=C(NCC1(O)CCCCCC1)c1cc(-c2cc[nH]n2)ccc1Cl
II = Cc1cc(-c2ccc(Cl)c(C(=O)NCC3(O)CCCCCC3)c2)nn1C[C@H](O)CN.Cl
III = Cc1cc(-c2ccc(Cl)c(C(=O)NCC3(O)CCCCCC3)c2)nn1C[C@@H](O)CN.Cl
Highest pIC50 first, then in falling order down to the smallest. Quick reminder: the answer is the labels in the order asked.
III, II, I
(III: 8.52, II: 8.00, I: 6.21)

====

test: Half life in human liver microsomes; conditions: liver microsomes
quantity-kind: half-life (h)

# smiles-code, half-life (h)
records = [
    ("O=C(NCC1(O)CCCCCC1)c1cc(-c2c[nH]cn2)ccc1Cl", 1.42),
]

a = COc1ccc(-c2ccc(Cl)c(C(=O)NCC3(O)CCCCCC3)c2)nn1
b = Cn1ccc(-c2ccc(Cl)c(C(=O)NCC3(O)CCCCCC3)c2)n1
c = O=C(NCC1(O)CCCCCC1)c1cc(-c2cc[nH]n2)ccc1Cl
Order the entries by their reported half-life, beginning at the minimum. Quick reminder: the answer is the labels in the order asked.
b, c, a

====

biological target: P2X purinoceptor 7 (Homo sapiens); assay: Antagonist activity at P2X7R expressed in LPS-activated human monocytes assessed as inhibition of ATP-induced IL1-beta release in presence of low serum concentration; type: functional, cell-based
pIC50: −log10 of the molar value.
quantity-kind: pIC50

I = O=C(NCC1(O)CCCCCC1)c1cc(-c2cnoc2)ccc1Cl
II = O=C(NCCc1ccccc1Cl)c1cc(-c2ccc(Cl)cn2)ccc1Cl
III = Cc1ccc(-c2ccc(Cl)c(C(=O)NCCc3ccccc3Cl)c2)nc1
Ranking request: pIC50, max to min, items above. Quick reminder: the answer is the labels in the order asked.
III, I, II

====

Target: P2X purinoceptor 7 (Homo sapiens)
Sequence (Q99572 whole entry): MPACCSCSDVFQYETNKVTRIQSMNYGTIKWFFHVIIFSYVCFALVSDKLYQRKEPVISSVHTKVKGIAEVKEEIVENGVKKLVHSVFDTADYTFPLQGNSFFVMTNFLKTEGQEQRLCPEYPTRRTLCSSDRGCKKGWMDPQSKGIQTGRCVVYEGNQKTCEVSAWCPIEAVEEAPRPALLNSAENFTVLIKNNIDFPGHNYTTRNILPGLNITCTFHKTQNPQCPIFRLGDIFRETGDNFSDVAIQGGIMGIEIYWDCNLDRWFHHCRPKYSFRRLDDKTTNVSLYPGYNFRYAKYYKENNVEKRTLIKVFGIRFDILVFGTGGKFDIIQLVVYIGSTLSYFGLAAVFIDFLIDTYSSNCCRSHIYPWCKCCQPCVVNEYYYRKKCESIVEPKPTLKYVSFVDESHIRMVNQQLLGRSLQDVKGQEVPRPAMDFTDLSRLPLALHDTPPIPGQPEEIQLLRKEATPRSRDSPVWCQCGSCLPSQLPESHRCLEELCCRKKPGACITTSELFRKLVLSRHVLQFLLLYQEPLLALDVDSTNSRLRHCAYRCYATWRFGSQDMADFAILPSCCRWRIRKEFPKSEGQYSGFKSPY
Assay: Antagonist activity at P2X7R expressed in LPS-activated human monocytes assessed as inhibition of ATP-induced IL1-beta release in presence of low serum concentration
Type: functional, cell-based
pIC50: −log10 of the molar value.
quantity-kind: pIC50

# compound, quantity-kind, assay-result
rows = [
    ("O=C(NCCc1ccccc1Cl)c1cc(-c2n[nH]c(=O)[nH]c2=O)ccc1Cl", "pIC50", 5.98),
]

1 = CCCCC(CC)CNC(=O)c1cc(-n2ncc(=O)[nH]c2=O)ccc1Cl (stereo not drawn)
2 = O=C(NCC1(O)CCCCCC1)c1cc(-c2c[nH]cn2)ccc1Cl
Hi! Which is lower in terms of pIC50, the first one 1 or the second one 2 ? Label of pick, please.
1

====

experiment: Lipophilicity, log P of the compound; assay type: physicochemical; details: octanol/water
quantity-kind: logP

# smiles-code, logP
records = [
    ("Cc1cc(-c2ccc(Cl)c(C(=O)NCC3(O)CCCCCC3)c2)nn1C[C@@H](O)CN.Cl", 2.6),
    ("Cc1cc(-c2ccc(Cl)c(C(=O)NCC3(O)CCCCCC3)c2)nn1C[C@H](O)CN.Cl", 2.6),
]

====

target: P2X purinoceptor 7 (Homo sapiens) (UniProt Q99572); experiment: Antagonist activity at P2X7R expressed in LPS-activated human monocytes assessed as inhibition of ATP-induced IL1-beta release at 1 uM in presence of low serum concentration; assay type: functional, cell-based
quantity-kind: inhibition (%)

# smiles-code, experimental-system, quantity-kind, assay-result
records = [
    ("Cc1cccnc1-c1ccc(Cl)c(C(=O)NCCc2ccccc2Cl)c1", "P2X purinoceptor 7 (Homo sapiens) (UniProt Q99572)", "inhibition", 0),
    ("N#Cc1ccc(-c2ccc(Cl)c(C(=O)NCCc3ccccc3Cl)c2)nc1", "P2X purinoceptor 7 (Homo sapiens) (UniProt Q99572)", "inhibition", 0),
    ("CC(=O)c1ccc(-c2ccc(Cl)c(C(=O)NCCc3ccccc3Cl)c2)nc1", "P2X purinoceptor 7 (Homo sapiens) (UniProt Q99572)", "inhibition", 0),
    ("Cc1ccnc(-c2ccc(Cl)c(C(=O)NCCc3ccccc3Cl)c2)c1", "P2X purinoceptor 7 (Homo sapiens) (UniProt Q99572)", "inhibition", 0),
    ("Cc1cccc(-c2ccc(Cl)c(C(=O)NCCc3ccccc3Cl)c2)n1", "P2X purinoceptor 7 (Homo sapiens) (UniProt Q99572)", "inhibition", 0),
]

====

experiment: Distribution coefficient, log D of the compound; format: physicochemical; conditions: octanol/water
quantity-kind: logD

# smiles-code, assay-result
measured = [
    ("Cc1cc(-c2ccc(Cl)c(C(=O)NCC3(O)CCCCCC3)c2)nn1C[C@H](O)CN.Cl", 1.6),
    ("Cc1cc(-c2ccc(Cl)c(C(=O)NCC3(O)CCCCCC3)c2)nn1C[C@@H](O)CN.Cl", 1.6),
]

====

molecular target: P2X purinoceptor 7 (Homo sapiens, UniProt Q99572); test: Antagonist activity at P2X7R expressed in HEK293 cells assessed as inhibition of ATP-induced YO-PRO-1 uptake; assay type: functional, cell-based
pIC50: −log10 of the molar value.
quantity-kind: pIC50

// solved cases for pIC50 follow
# smiles-code, quantity-kind, assay-result
data = [
    ("Cc1cc(-c2ccc(Cl)c(C(=O)NCC3(O)CCCCCC3)c2)nn1C[C@H](O)CN.Cl", "pIC50", 8.52),
    ("COc1ccc(-c2ccc(Cl)c(C(=O)NCC3(O)CCCCCC3)c2)nn1", "pIC50", 7.55),
    ("Cn1nccc1-c1ccc(Cl)c(C(=O)NCC2(O)CCCCCC2)c1", "pIC50", 6.58),
]

I = O=C(NCC1(O)CCCCCC1)c1cc(-c2cc[nH]n2)ccc1Cl
II = Cc1cc(-c2ccc(Cl)c(C(=O)NCC3(O)CCCCCC3)c2)nn1C[C@@H](O)CN.Cl
Hi! Which is lower in terms of pIC50, the first one I or the second one II ? Label of pick, please.
I
(I: 7.92, II: 9.30)

====

molecular target: UniProt:Q99572; assay: Antagonist activity at P2X7R expressed in LPS-activated human monocytes assessed as inhibition of ATP-induced IL1-beta release in presence of low serum concentration; assay type: functional, cell-based
quantity-kind: IC50 (nM)

// solved cases for IC50 follow
# compound, IC50 [nM]
rows = [
    ("NC(=O)c1ccc(-c2ccc(Cl)c(C(=O)NCCc3ccccc3Cl)c2)nc1", 720),
    ("O=C(NCCc1ccccc1Cl)c1cc(-c2ccccn2)ccc1Cl", 1600),
    ("Cc1cc(-c2ccc(Cl)c(C(=O)NCC3(O)CCCCCC3)c2)nn1C[C@@H](O)CN.Cl", 2),
]

1 = Cc1cc(-c2ccc(Cl)c(C(=O)NCC3(O)CCCCCC3)c2)nn1C[C@H](O)CN.Cl
2 = COC[C@H](O)Cn1c(=O)cnn(-c2ccc(Cl)c(C(=O)NCC3(O)CCCCCC3)c2)c1=O
Sort 1 and 2 by IC50 descending and give the first. Label of pick, please.
1
(1: 7 nM, 2: 1.3 nM)

====

test: Oral bioavailability in rat; conditions: in vivo
quantity-kind: bioavailability (%)
Just the number in %, nothing appended.

The reported bioavailability of the molecule Cc1cc(-c2ccc(Cl)c(C(=O)NCC3(O)CCCCCC3)c2)nn1C[C@@H](O)CN.Cl was 9
